Would you mind telling me the reported GI50 of each entry?
Tested on: SK-MEL-2
assay_notes: NCI tumour cell line growth inhibition, 48 h
Activity calls are given as the source filed them. Cut-off read from the data, not from the text of the source: active = GI50 up to about 1.1 µM and inactive = higher. Peptide text beside a SMILES is read from it. * marks the point of attachment. Cbz = O=C(OCc1ccccc1)*

Field: example entries. Status: answers known.
> print(dat)
                                   compound  assayed.target             measured
1   O=C(O)Cn1ccc(=O)c2ccc([N+](=O)[O-])cc21        SK-MEL-2  > 100 µM (inactive)
2       CCOP(=O)(/C=C\n1ccc(=O)[nH]c1=O)OCC        SK-MEL-2  > 100 µM (inactive)
3  CCOC(=O)N1CCC(=O)C[C@@H]1C/C=C/P1(=O)O[C@H](c2ccccc2)C(C)N1C(C)C (some centres not stated)        SK-MEL-2  > 100 µM (inactive)

# per-item lookup of GI50; items listed below
1. Brc1ccc(/N=c2/nc3ccccn3n3nc(-c4ccccc4)cc23)cc1
2. N#Cc1ccccc1NC(=O)/C(=N\NC(=O)c1ccncc1)C(c1cnc2ccc([N+](=O)[O-])cc2n1)[N+](=O)[O-] (configuration not stated)
3. CC(=O)/C=C1\Nc2sc(C)c(C)c2C(=O)S1
4. CCN1CCC(C)OP1(=O)Cc1ccccc1 (configuration not stated)
5. COCCNC(=O)C1C(=O)N(CCOC)C(=O)/C1=N/N (configuration not stated)
6. Cc1ccccc1NC(=O)CC(=O)n1nc(-c2ccccc2)c(/N=N/c2ccc([N+](=O)[O-])cc2)c1-c1ccccc1
7. Cc1ccc(-c2nnc(-c3ccc4ccccc4c3)o2)cc1
8. O=C(O)CCC(NC(=O)OCc1ccccc1)C(=O)NC(Cc1c[nH]cn1)C(=O)O (stereo not drawn) (Cbz-Glu-His-OH; configuration not given here)

A)
9.57 µM (inactive)
> 100 µM (inactive)
24.2 µM (inactive)
> 100 µM (inactive)
> 100 µM (inactive)
25.3 µM (inactive)
2.92 µM (inactive)
> 100 µM (inactive)

Q) Quick one: GI50 for "CCN1C(=O)C(=Cc2ccc(-c3ccccc3)cc2)C(=O)N(CC)C1=S" ?
A) > 100 µM (inactive)
